# assayed.target: wild-type human cardiac sodium channel, hNav1.5 (Homo sapiens)
# Sequence (Q14524 whole entry): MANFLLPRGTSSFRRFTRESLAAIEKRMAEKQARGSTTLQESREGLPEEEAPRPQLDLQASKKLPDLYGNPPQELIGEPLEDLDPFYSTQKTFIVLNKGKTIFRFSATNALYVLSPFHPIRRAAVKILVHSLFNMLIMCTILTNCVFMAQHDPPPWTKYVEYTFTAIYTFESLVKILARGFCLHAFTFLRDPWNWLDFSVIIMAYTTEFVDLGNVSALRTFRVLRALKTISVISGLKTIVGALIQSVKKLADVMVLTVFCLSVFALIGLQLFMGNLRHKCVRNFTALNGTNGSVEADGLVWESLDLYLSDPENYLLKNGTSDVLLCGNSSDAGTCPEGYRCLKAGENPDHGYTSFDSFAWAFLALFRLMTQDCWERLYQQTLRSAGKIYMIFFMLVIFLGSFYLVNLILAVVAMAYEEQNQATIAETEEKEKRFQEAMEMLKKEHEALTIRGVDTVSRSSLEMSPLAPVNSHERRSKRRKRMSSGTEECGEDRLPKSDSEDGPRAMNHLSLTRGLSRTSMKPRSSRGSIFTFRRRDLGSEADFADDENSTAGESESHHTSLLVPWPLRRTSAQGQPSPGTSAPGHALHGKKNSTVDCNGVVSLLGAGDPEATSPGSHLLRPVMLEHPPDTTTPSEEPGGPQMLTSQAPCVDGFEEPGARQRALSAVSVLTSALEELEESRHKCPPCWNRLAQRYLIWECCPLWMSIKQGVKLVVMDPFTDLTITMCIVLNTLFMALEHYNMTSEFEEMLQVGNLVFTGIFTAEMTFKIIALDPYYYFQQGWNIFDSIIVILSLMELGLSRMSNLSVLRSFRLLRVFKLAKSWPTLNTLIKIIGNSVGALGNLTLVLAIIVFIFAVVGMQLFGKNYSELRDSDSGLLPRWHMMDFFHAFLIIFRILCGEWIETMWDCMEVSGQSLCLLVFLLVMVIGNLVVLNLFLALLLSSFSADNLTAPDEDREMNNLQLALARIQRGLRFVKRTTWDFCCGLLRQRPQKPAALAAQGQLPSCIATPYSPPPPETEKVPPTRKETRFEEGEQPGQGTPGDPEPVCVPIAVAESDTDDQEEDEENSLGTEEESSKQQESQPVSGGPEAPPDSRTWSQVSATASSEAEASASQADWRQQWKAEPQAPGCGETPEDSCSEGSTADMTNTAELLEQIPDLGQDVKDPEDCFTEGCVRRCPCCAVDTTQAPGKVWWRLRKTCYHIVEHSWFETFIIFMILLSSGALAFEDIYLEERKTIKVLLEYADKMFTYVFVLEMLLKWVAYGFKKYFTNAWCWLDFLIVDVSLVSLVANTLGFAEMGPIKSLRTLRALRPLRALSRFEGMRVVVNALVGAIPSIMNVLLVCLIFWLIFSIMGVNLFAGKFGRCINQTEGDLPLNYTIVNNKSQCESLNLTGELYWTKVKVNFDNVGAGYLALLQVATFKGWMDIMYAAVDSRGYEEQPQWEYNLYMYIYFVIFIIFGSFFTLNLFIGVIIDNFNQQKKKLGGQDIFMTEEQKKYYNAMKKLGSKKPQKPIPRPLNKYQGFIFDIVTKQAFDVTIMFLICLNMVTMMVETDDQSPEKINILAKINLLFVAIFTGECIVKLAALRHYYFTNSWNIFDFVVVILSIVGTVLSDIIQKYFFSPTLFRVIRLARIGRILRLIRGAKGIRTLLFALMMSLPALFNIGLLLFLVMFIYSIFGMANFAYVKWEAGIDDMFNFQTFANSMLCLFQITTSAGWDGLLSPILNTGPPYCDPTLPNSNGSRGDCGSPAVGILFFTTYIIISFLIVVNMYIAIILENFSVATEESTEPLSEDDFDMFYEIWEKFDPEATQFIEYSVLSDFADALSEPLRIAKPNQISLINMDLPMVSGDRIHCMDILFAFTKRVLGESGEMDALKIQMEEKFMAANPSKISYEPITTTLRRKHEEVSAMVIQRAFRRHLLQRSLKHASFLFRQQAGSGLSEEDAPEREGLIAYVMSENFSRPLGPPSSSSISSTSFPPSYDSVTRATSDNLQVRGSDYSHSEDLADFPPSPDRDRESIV
# protocol.details: Peak INa screening assay (tonic block and use-dependent block)
# Type: cell-based
# measurement.parameters: tonic block of Peak INa, 0.1 Hz, holding -100 mV, read-out: Peak TB 3 uM
value.type: inhibition at 3 µM (%)
Number in %, nothing else.

Request: Provide only the value of recorded inhibition at 3 µM for FC(F)(F)Oc1ccc(-c2ccc3onc(OCc4nccn4-c4ccccc4)c3c2)cc1
Result: 10.1

Request: Provide only the value of recorded inhibition at 3 µM for CC(C)[C@@H](COc1noc2ccc(-c3ccc(OC(F)(F)F)cc3)cc12)N1CCCC1=O
Result: 35.2

Request: Provide only the value of recorded inhibition at 3 µM for CCn1cncc1COc1noc2ccc(-c3ccc(OC(F)(F)F)cc3)cc12
Result: 16.9

Request: Provide only the value of recorded inhibition at 3 µM for COCCOc1noc2ccc(-c3ccc(OC(F)(F)F)cc3)cc12
Result: 30.6

Request: Provide only the value of recorded inhibition at 3 µM for COc1cc2onc(OCc3ncccn3)c2cc1-c1ccc(OC(F)(F)F)c(C)c1
Result: 23.8

Request: Provide only the value of recorded inhibition at 3 µM for FC(F)(F)Oc1ccc(-c2ccc3onc(-n4cnc(Cl)c4)c3c2)cc1
Result: 8.5

Request: Provide only the value of recorded inhibition at 3 µM for Cc1cc(-c2ccc(OC(F)(F)F)cc2)cc2c(OCc3cn(C)nn3)noc12
Result: 54.7

Request: Provide only the value of recorded inhibition at 3 µM for CCN(CC)C(=O)COc1noc2ccc(-c3ccc(OC(F)(F)F)cc3)cc12
Result: 58.5

----------
Entries and their measured inhibition at 10 µM follow.
# assayed.target: hNav1.1 (SCN1A) (Homo sapiens)
# protocol.details: Use-dependent inhibition of the CNS Nav1.1 sodium channel
# Format: cell-based
# measurement.parameters: use-dependent block, 25 Hz, pulse 20, read-out: Nav1.1 UDB 25 Hz 10 uM

Request: Provide only the value of recorded inhibition at 10 µM for FC(F)(F)c1ccc(-c2ccc3onc(OCc4ncccn4)c3c2)cc1
Result: < 5%

Request: Provide only the value of recorded inhibition at 10 µM for FC(F)(F)Oc1ccc(-c2ccc3onc(-n4cnc(-c5ccccc5)c4)c3c2)cc1
Result: 59%

Request: Provide only the value of recorded inhibition at 10 µM for COc1ccnc(COc2noc3ccc(-c4ccc(OC(F)(F)F)cc4)cc23)c1
Result: < 5%

Request: Provide only the value of recorded inhibition at 10 µM for CC(C)(C)OC(=O)N1CCOC[C@H]1COc1noc2ccc(-c3ccc(OC(F)(F)F)cc3)cc12
Result: 50.4%

----------
# assayed.target: hNaV1.2 (SCN2A) (Homo sapiens, UniProt Q99250)
# Construct: expressed in transfected cells
# Sequence (Q99250 whole entry): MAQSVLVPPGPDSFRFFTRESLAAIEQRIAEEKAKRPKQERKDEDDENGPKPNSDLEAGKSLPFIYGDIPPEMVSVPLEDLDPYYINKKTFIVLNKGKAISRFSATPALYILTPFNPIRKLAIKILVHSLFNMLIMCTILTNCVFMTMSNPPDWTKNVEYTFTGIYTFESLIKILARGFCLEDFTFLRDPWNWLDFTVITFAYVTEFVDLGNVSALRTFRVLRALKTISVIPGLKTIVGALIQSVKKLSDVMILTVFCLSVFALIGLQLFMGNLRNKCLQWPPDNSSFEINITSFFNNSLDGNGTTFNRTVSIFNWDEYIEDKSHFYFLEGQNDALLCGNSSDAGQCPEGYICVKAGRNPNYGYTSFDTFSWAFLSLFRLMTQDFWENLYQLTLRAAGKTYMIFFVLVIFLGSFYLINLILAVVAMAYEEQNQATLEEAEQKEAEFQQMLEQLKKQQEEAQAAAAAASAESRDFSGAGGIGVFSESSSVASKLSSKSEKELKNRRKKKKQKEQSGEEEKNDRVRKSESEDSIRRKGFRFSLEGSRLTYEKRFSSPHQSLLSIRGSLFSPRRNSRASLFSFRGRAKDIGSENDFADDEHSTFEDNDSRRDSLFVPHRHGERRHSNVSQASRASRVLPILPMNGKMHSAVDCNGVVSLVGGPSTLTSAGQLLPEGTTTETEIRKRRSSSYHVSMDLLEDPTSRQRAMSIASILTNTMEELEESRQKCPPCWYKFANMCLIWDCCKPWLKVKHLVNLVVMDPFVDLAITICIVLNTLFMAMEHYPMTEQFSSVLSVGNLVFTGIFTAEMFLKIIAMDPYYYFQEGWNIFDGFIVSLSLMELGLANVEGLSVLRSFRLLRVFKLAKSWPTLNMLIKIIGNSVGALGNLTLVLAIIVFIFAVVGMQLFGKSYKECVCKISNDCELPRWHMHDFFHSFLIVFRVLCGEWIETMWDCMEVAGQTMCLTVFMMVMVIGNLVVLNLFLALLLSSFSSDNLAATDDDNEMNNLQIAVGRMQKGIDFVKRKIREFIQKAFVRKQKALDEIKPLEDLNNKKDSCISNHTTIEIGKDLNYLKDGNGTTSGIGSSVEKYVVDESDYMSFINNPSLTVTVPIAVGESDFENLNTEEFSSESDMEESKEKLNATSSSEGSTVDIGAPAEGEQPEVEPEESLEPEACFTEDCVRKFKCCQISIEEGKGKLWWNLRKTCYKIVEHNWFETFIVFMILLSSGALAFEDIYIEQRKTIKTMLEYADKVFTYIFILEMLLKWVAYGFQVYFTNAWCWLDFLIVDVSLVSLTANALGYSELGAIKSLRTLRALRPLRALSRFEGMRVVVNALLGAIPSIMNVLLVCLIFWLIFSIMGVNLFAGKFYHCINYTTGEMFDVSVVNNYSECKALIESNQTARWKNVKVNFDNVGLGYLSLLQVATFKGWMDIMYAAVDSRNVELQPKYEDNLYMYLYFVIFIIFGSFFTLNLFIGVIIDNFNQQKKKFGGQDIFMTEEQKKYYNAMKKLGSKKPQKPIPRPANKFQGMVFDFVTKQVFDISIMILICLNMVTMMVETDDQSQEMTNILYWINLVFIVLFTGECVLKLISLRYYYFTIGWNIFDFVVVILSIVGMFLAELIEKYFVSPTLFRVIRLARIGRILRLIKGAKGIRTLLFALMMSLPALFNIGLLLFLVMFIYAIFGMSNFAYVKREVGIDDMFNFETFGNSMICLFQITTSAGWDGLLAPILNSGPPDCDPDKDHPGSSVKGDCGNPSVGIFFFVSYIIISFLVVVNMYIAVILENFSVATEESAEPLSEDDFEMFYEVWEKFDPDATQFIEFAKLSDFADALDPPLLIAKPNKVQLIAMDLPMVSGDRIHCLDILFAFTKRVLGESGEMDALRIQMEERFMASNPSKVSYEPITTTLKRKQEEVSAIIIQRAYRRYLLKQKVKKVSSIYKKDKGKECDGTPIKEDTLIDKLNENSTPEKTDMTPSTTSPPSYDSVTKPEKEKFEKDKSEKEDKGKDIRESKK
# Sequence (Q07699 19-218 partner): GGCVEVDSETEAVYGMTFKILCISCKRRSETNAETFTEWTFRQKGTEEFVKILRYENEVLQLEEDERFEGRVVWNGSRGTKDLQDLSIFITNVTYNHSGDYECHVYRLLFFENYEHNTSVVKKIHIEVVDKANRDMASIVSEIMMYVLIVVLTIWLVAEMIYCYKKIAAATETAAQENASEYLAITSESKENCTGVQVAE
# Sequence (O60939 30-215 partner): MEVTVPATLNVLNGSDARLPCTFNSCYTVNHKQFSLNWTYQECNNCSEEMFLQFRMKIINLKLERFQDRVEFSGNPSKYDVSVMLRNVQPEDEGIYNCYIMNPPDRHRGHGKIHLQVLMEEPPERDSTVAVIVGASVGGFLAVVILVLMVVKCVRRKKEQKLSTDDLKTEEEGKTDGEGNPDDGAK
# protocol.details: Use-dependent inhibition of the CNS Nav1.2 sodium channel
# Format: cell-based
# measurement.parameters: use-dependent block, 25 Hz, pulse 20, read-out: Nav1.2 UDB 25 Hz 10 uM
Entries and their measured inhibition at 10 µM follow.
Number in %, nothing else.

Consider the worked cases shown below.
INSERT INTO results (molecule, assay_value) VALUES
  ('CC(C)n1ccnc1COc1noc2ccc(-c3ccc(OC(F)(F)F)cc3)cc12 [Example 48]', 54.2),
  ('Cc1nnc(COc2noc3c(F)cc(-c4ccc(OC(F)(F)F)cc4)cc23)o1 [Example 155]', 58.6),
  ('Cc1nccnc1COc1noc2ccc(-c3ccc(OC(F)(F)F)cc3)cc12 [Example 152]', 13.8),
  ('C[C@@H](N)COc1noc2ccc(-c3ccc(OC(F)(F)F)cc3)cc12 [Example 117]', 88.4),
  ('CC(C)[C@H](N)COc1noc2ccc(-c3ccc(OC(F)(F)F)cc3)cc12 [Example 118]', 90.4);

Request: Provide only the value of recorded inhibition at 10 µM for FC(F)(F)Oc1ccc(-c2ccc3onc(OCc4nnc(C5CC5)o4)c3c2)cc1 [Example 96]
Result: 5.7

Request: Provide only the value of recorded inhibition at 10 µM for O=C1CC[C@H](COc2noc3ccc(-c4ccc(OC(F)(F)F)cc4)cc23)N1 [Example 61]
Result: 31

Request: Provide only the value of recorded inhibition at 10 µM for Cc1nc(C)n(C(C)COc2noc3ccc(-c4ccc(OC(F)(F)F)cc4)cc23)n1 (stereo not drawn) [Example 79]
Result: 34

Request: Provide only the value of recorded inhibition at 10 µM for Cc1ncn(-c2noc3ccc(-c4ccc(OC(F)(F)F)cc4)cc23)n1 [Example 141]
Result: 19.9

Request: Provide only the value of recorded inhibition at 10 µM for O=C1CCCN1CCOc1noc2ccc(-c3ccc(OC(F)(F)F)cc3)cc12 [Example 59]
Result: 37.4

Request: Provide only the value of recorded inhibition at 10 µM for COc1cc(-c2ccc(OC(F)(F)F)cc2)cc2c(OCc3ncccn3)noc12 [Example 22]
Result: 40
